assay text: Agonist activity at recombinant rat GluN1a/GluN2A receptor expressed in Xenopus laevis oocytes assessed as increase in glycine/glutamate-induced channel current at -40 mV holding potential by two-electrode voltage clamp method
Assay type: cell-based, Oocyte
condition: Rattus norvegicus, Oocyte; read-out: EC50
Threshold 4 µM: EC50 strictly smaller gives yes (1), otherwise no (0).

N[C@H](C(=O)O)[C@@H]1C[C@]1(CO)C(=O)O : yes (1)
C=CCOC[C@]1(C(=O)O)C[C@H]1[C@H](N)C(=O)O : yes (1)
N[C@H](C(=O)O)[C@@H]1C[C@]1(CS)C(=O)O : no (0)
CCCC[C@]1(C(=O)O)C[C@H]1[C@H](N)C(=O)O : no (0)
[N-]=[N+]=NC[C@]1(C(=O)O)C[C@H]1[C@H](N)C(=O)O : no (0)

Consider the record given below.
Ask: Check if EC50 falls below 4 µM for "C[C@]1(C(=O)O)C[C@H]1[C@H](N)C(=O)O" .
Result: yes (1)
